- Tested on: MDAMB415
- method: GRmax, 72 h; higher = less effect

molecule	targetEntity	GRmax, 72 h, GR
CC(=O)Nc1cccc(-n2c(=O)n(C3CC3)c(=O)c3c(Nc4ccc(I)cc4F)n(C)c(=O)c(C)c32)c1 (max 1 µM)	MDAMB415	0.285
CC(=O)O[C@H]1C(=O)[C@@]2(C)[C@H]([C@H](OC(=O)c3ccccc3)[C@]3(O)C[C@H](OC(=O)[C@H](O)[C@@H](NC(=O)c4ccccc4)c4ccccc4)C(C)=C1C3(C)C)[C@]1(OC(C)=O)CO[C@@H]1C[C@@H]2O [Paclitaxel] (max 1 µM)	MDAMB415	-0.344
O=C1NC(=NCc2cccs2)SC1=Cc1ccc2ncccc2c1 [R0-3306] (max 10 µM)	MDAMB415	0.914

---

- Tested on: PDX1258
- method: area over the GR curve, 72 h; higher = more effect
Just so you know, the groups by area over the GR curve go like this: low: < 0.02 GR; intermediate: ≥ 0.02 GR and < 0.3 GR; high: ≥ 0.3 GR

molecule	targetEntity	answerLabel
COc1cc2c(Oc3ccc4[nH]c(C)cc4c3F)ncnc2cc1OCCCN1CCCC1 [Cediranib/AZD2171] (max 10 µM)	PDX1258	intermediate
O=C1NC(=O)[C@@H](c2cn3c4c(cccc24)CCC3)[C@@H]1c1c[nH]c2ccccc12 [Tivantinib/ARQ197] (max 10 µM)	PDX1258	high
Cc1cc(C(C)Nc2ccccc2)c2nc(N3CCOCC3)cc(=O)n2c1 (centres undefined) [TGX221] (max 10 µM)	PDX1258	low
COc1cccc(OCCCN)c1-c1cc(Nc2cnc(C#N)cn2)n[nH]1	PDX1258	high
CN(C)C/C=C/C(=O)Nc1ccc(C(=O)N2CCC[C@@H](Nc3ncc(Cl)c(-c4c[nH]c5ccccc45)n3)C2)cc1 [THZ531] (max 1 µM)	PDX1258	high
COc1cc(N2CCN(C)CC2)ccc1Nc1ncc2c(n1)N(C)c1ccccc1C(=O)N2CC(F)(F)F	PDX1258	low
N.N.[Cl][Pt][Cl] [Cisplatin] (max 10 µM)	PDX1258	intermediate
CC(C)Nc1cc(-c2c[nH]c(C(=O)N[C@H](CO)c3cccc(Cl)c3)c2)c(Cl)cn1 [BVD523] (max 10 µM)	PDX1258	intermediate
CN(C)C(=O)c1cc2cnc(Nc3ccc(N4CCNCC4)cn3)nc2n1C1CCCC1 [LEE011/Ribociclib] (max 10 µM)	PDX1258	low
O=C(CCCCCCC(=O)Nc1ccccc1)NO [Vorinostat] (max 10 µM)	PDX1258	intermediate
CC1(N)CCN(c2cnc(-c3cccc(Cl)c3Cl)c(N)n2)CC1 [SHP099] (max 10 µM)	PDX1258	low
CC(=O)O[C@H]1C(=O)[C@@]2(C)[C@H]([C@H](OC(=O)c3ccccc3)[C@]3(O)C[C@H](OC(=O)[C@H](O)[C@@H](NC(=O)c4ccccc4)c4ccccc4)C(C)=C1C3(C)C)[C@]1(OC(C)=O)CO[C@@H]1C[C@@H]2O [Paclitaxel] (max 1 µM)	PDX1258	high
Cc1nc(-c2cn3c(n2)-c2ccc(-c4cnn(C(C)(C)C(N)=O)c4)cc2OCC3)n(C(C)C)n1 [Taselisib/GDC0032] (max 10 µM)	PDX1258	intermediate

---

- Test system: 184A1
- method: GRmax, 72 h; higher = less effect;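 also: breast cell lines in 384-well plates, nine doses across a 10^4 range, Dye Drop imaging of viable cells vs DMSO and time-zero plates, GR 0 means no net growth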
observationType: GRmax, 72 h (GR)

compound	observedValue
CO[C@H]1C[C@@H]2CC[C@@H](C)[C@@](O)(O2)C(=O)C(=O)N2CCCC[C@H]2C(=O)O[C@H]([C@H](C)C[C@@H]2CC[C@@H](OCCO)[C@H](OC)C2)CC(=O)[C@H](C)/C=C(\C)[C@@H](O)[C@@H](OC)C(=O)[C@H](C)C[C@H](C)/C=C/C=C/C=C/1C [Everolimus] (max 10 µM)	0.501
CN1CCN(CCOc2cc(OC3CCOCC3)c3c(Nc4c(Cl)ccc5c4OCO5)ncnc3c2)CC1 [Saracatinib/AZD0530] (max 10 µM)	0.24
CC(=O)c1c(C)c2cnc(Nc3ccc(N4CCNCC4)cn3)nc2n(C2CCCC2)c1=O (max 3.162 µM)	0.128
CC(=O)c1c(C)c2cnc(Nc3ccc(N4CCN(CCOCCOCCOCCNC(=O)COc5cccc6c5C(=O)N(C5CCC(=O)NC5=O)C6=O)CC4)cn3)nc2n(C2CCCC2)c1=O (configuration not stated) [BSJ-03-123] (max 10 µM)	-0.137
Cc1nc(NC(=O)N2CCC[C@H]2C(N)=O)sc1-c1ccnc(C(C)(C)C(F)(F)F)c1 [Alpelisib/BYL719] (max 10 µM)	0.431
CCN1CCN(Cc2ccc(Nc3ncc(F)c(-c4cc(F)c5nc(C)n(C(C)C)c5c4)n3)nc2)CC1 (max 10 µM)	-0.105
CC1(N)CCN(c2cnc(-c3cccc(Cl)c3Cl)c(N)n2)CC1 [SHP099] (max 10 µM)	0.279

---

area over the GR curve values, listed per item
- Test system: MDAMB468
- method: area over the GR curve, 72 h; higher = more effect
observationType: area over the GR curve (GR)

compound	observationType	observedValue
CN1CCN(C(=O)c2ccc3cc(CCNc4ncnc5ccc(C#N)cc45)ccc3c2)CC1 [senexin b] (max 10 µM)	area over the GR curve	0.28
CC[C@@]1(O)C(=O)OCc2c1cc1n(c2=O)Cc2cc3c(CN(C)C)c(O)ccc3nc2-1 [Topotecan] (max 10 µM)	area over the GR curve	1.07
CN1CC[C@H](c2c(O)cc(O)c3c(=O)cc(-c4ccccc4Cl)oc23)[C@H](O)C1 [Flavopiridol] (max 1 µM)	area over the GR curve	0.269
NC1(C(=O)N[C@@H](CCO)c2ccc(Cl)cc2)CCN(c2nc[nH]c3nccc2-3)CC1 [AZD5363] (max 10 µM)	area over the GR curve	0.135
CC(C)Nc1cc(-c2c[nH]c(C(=O)N[C@H](CO)c3cccc(Cl)c3)c2)c(Cl)cn1 [BVD523] (max 10 µM)	area over the GR curve	0.267
Nc1ccc(-c2ccc3ncc4ccc(=O)n(-c5cccc(C(F)(F)F)c5)c4c3c2)cn1 [Torin2] (max 1 µM)	area over the GR curve	0.437
CCNC(=O)c1noc(-c2cc(C(C)C)c(O)cc2O)c1-c1ccc(CN2CCOCC2)cc1 [Luminespib/NVP-AUY922] (max 1 µM)	area over the GR curve	0.648

---

Below, each entry is listed alongside its reported area over the GR curve.
- Tested on: SUM44PE
- method: area over the GR curve, 72 h; higher = more effect

compound	targetEntity	area over the GR curve [GR]
CC(C)NC[C@@H](C(=O)N1CCN(c2ncnc3c2[C@H](C)C[C@H]3O)CC1)c1ccc(Cl)cc1 [Ipatasertib/GDC0068] (max 10 µM)	SUM44PE	0.412
CC(=O)Nc1cccc(-n2c(=O)n(C3CC3)c(=O)c3c(Nc4ccc(I)cc4F)n(C)c(=O)c(C)c32)c1 (max 1 µM)	SUM44PE	0.186
CN1CC[C@H](c2c(O)cc(O)c3c(=O)cc(-c4ccccc4Cl)oc23)[C@H](O)C1 [Flavopiridol] (max 1 µM)	SUM44PE	0.406
CO[C@H]1C[C@@H]2CC[C@@H](C)[C@@](O)(O2)C(=O)C(=O)N2CCCC[C@H]2C(=O)O[C@H]([C@H](C)C[C@@H]2CC[C@@H](OCCO)[C@H](OC)C2)CC(=O)[C@H](C)/C=C(\C)[C@@H](O)[C@@H](OC)C(=O)[C@H](C)C[C@H](C)/C=C/C=C/C=C/1C [Everolimus] (max 10 µM)	SUM44PE	0.734
Cc1nn(C)c(COc2ccc(N3CCN(S(=O)(=O)N(C)C)CC3)cc2)c1-c1cccc2c(CCCOc3cccc4ccccc34)c(C(=O)O)n(CCN3CCOCC3)c12 (max 10 µM)	SUM44PE	0.14

---

- System: MDAMB415
- method: area over the GR curve, 72 h; higher = more effect;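 also: Dye Drop or Deep Dye Drop imaging of viable cells in 384-well plates (Hoechst nuclei, LIVE/DEAD dye), nine half-log doses, GR normalized to DMSO controls and time-zero plates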
// reported area over the GR curve for each item listed
observationType: area over the GR curve (GR)

molecule	observationType	observedValue
O=C(c1cc(Cc2n[nH]c(=O)c3ccccc23)ccc1F)N1CCN(C(=O)C2CC2)CC1 [Olaparib/AZD2281] (max 10 µM)	area over the GR curve	-0.0472
CC(C)n1nc(-c2ccc3oc(N)nc3c2)c2c(N)ncnc21 [INK128/MLN0128] (max 3.162 µM)	area over the GR curve	0.692
CC(=O)c1c(C)c2cnc(Nc3ccc(N4CCNCC4)cn3)nc2n(C2CCCC2)c1=O (max 3.162 µM)	area over the GR curve	0.454
CC(=O)c1c(C)c2cnc(Nc3ccc(N4CCN(CCOCCOCCOCCNC(=O)COc5cccc6c5C(=O)N(C5CCC(=O)NC5=O)C6=O)CC4)cn3)nc2n(C2CCCC2)c1=O (stereo unspecified) [BSJ-03-123] (max 10 µM)	area over the GR curve	0.332
O=C1NC(=NCc2cccs2)SC1=Cc1ccc2ncccc2c1 [R0-3306] (max 10 µM)	area over the GR curve	0.0262
CO[C@H]1C[C@@H]2CC[C@@H](C)[C@@](O)(O2)C(=O)C(=O)N2CCCC[C@H]2C(=O)O[C@H]([C@H](C)C[C@@H]2CC[C@@H](OCCO)[C@H](OC)C2)CC(=O)[C@H](C)/C=C(\C)[C@@H](O)[C@@H](OC)C(=O)[C@H](C)C[C@H](C)/C=C/C=C/C=C/1C [Everolimus] (max 10 µM)	area over the GR curve	0.807
